Readings of pIC50 for the listed compounds
Biological target: Diacylglycerol lipase-alpha (Homo sapiens)
Sequence (Q9Y4D2 whole entry): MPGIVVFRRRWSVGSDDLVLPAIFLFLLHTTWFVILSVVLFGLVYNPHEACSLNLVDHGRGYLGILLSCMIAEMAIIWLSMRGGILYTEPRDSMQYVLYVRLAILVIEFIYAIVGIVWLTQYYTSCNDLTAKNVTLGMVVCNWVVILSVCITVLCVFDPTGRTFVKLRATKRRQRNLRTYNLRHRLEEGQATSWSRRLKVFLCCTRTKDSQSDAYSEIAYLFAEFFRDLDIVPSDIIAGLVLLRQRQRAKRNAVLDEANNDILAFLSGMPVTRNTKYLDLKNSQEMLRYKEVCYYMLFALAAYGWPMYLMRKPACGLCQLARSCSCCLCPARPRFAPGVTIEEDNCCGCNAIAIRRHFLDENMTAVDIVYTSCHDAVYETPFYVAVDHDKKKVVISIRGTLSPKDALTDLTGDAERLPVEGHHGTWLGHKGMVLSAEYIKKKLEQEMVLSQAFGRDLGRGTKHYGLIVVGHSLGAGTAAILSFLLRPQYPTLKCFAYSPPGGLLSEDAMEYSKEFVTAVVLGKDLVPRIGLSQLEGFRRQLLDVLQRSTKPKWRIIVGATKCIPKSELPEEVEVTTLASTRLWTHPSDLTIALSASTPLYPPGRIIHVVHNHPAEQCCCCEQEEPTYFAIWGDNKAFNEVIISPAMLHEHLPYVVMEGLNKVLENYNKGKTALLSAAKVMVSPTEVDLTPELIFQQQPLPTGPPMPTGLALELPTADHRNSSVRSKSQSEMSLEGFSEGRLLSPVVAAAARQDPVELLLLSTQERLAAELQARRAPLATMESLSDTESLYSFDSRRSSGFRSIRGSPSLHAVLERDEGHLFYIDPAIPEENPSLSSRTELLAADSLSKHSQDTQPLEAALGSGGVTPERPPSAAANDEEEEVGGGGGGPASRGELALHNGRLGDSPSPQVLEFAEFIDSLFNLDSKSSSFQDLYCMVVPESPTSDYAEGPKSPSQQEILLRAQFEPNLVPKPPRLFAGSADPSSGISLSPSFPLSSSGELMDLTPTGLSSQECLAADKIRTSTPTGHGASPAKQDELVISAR
Test: Inhibition of full-length human DAGLalpha expressed in HEK293T cell membranes using para-nitrophenylbutyrate by colorimetric assay
Assay type: cell-based, HEK-293T
pIC50: −log10 of the molar value.

Below are worked cases with known answers.
Record smiles | Target entity | pIC50
O=C(CCCCCCc1ccccc1)c1nnc(-c2ccccc2)o1 | Diacylglycerol lipase-alpha (Homo sapiens) | < 5.00
O=C(CCCCCCc1ccccc1)c1noc(-c2ccccn2)n1 | Diacylglycerol lipase-alpha (Homo sapiens) | < 5.00
CS(=O)(=O)c1cnc(C(=O)CCCCCCc2ccccc2)o1 | Diacylglycerol lipase-alpha (Homo sapiens) | < 5.00
O=C(CCCCCCc1ccccc1)c1ccc(-c2cccs2)nn1 | Diacylglycerol lipase-alpha (Homo sapiens) | < 5.00
O=C(CCCCCCc1ccccc1)c1ncc(-c2ccccc2F)o1 | Diacylglycerol lipase-alpha (Homo sapiens) | < 5.00

// lookup pIC50 | system=Diacylglycerol lipase-alpha (Homo sapiens) | key= "O=C(CCCCCCc1ccccc1)c1nnn(-c2cccs2)n1"
< 5.00

Next up: "CCCCCCCCCC(=O)c1nc2ncccc2o1"
7.13

Next up: "O=C(CCCCCc1ccccc1)c1nc2ccc(Br)cc2o1"
5.23

Next up: "O=C(CCCCCCc1ccccc1)c1ncco1"
< 5.00

Next up: "O=C(CCCCCc1ccccc1)c1nc2cccnc2o1"
5.77

Next up: "CCCCC(=O)c1nc2ncccc2o1"
< 5.00

Next up: "CN(C)C(=O)c1cnc(C(=O)CCCCCCc2ccccc2)o1"
< 5.00

Next up: "O=C(CCCCCCc1ccccc1)c1ncc(Br)o1"
< 5.00

Next up: "COC(=O)c1nnc(C(=O)CCCCCCc2ccccc2)s1"
< 5.00

Next up: "O=C(CCCCCCc1ccccc1)c1nnc[nH]1"
< 5.00

Next up: "O=C(CCCCCCc1ccccc1)c1nncs1"
< 5.00

Next up: "O=C(CCCCCCc1ccccc1)c1nnc(-c2ccccn2)[nH]1"
< 5.00

Next up: "O=C(O)c1cccc(-c2noc(C(=O)CCCCCCc3ccccc3)n2)n1"
< 5.00

Next up: "O=C(CCCCCCc1ccccc1)c1noc(-c2cccs2)n1"
< 5.00

Next up: "O=C(CCCCCCc1ccccc1)c1nc(-c2ccncc2)co1"
< 5.00

Next up: "O=C(CCCCCCc1ccccc1)c1nc(Cl)co1"
5.62

Next up: "O=C(CCCCCCc1ccccc1)c1ncc(-c2ccccc2)o1"
< 5.00

Next up: "O=Cc1coc(C(=O)CCCCCCc2ccccc2)n1"
5.82

Next up: "O=C(CCCCCc1ccccc1)c1nc2cc(F)ccc2o1"
5.85

Next up: "COC(=O)c1nnc(C(=O)CCCCCCc2ccccc2)[nH]1"
< 5.00

Next up: "O=C(CCCCCc1ccccc1)c1nc2cccc(Br)c2o1"
< 5.00

Next up: "O=C(CCCCCCc1ccccc1)c1ncc(-c2ccc(F)cc2)o1"
< 5.00

Next up: "COC(=O)c1cccc(-c2noc(C(=O)CCCCCCc3ccccc3)n2)n1"
< 5.00

Next up: "CNC(=O)c1cnc(C(=O)CCCCCCc2ccccc2)o1"
< 5.00
